Attribution: the OPERA property sets (Mansouri et al. 2018)

Value kind: melting point (°C)
The reply should be a number in °C, with the unit left off.

>>> reported_result("FC(F)(F)Oc1ccccc1")
-50
>>> reported_result("O=C(C(Cl)Cl)N(CCO)Cc1ccc(Oc2ccc([N+](=O)[O-])cc2)cc1")
136
>>> reported_result("COc1cc(Cl)cc(Cl)c1")
41
>>> reported_result("O=S(=O)(Sc1ccccc1)c1ccc(Cl)cc1")
-86.8

Would you kindly look at the next entry?
# input For the compound shown here, `N#CC1CCCCC1` , give the reported melting point.
# output 11

====

Overview of recorded boiling point for various molecules
Answers without a unit are incomplete; give the number and then its unit.

# input Item `O=[N+]([O-])c1cc(F)c(F)cc1F` has what recorded boiling point?
# output 194 °C

# input Next up: `Clc1cc(Cl)c(Cl)c(Cl)c1Cl`
# output 277 °C

# input How about this molecule: `CCCCCCCCCCCCCCCCCCCCCCCCCCC`
# output 442 °C

# input Same question, `CC(C)CCC(=O)c1ccoc1` this time
# output 196 °C

# input What do you have for `CCCCCCCCCC` ?
# output 174 °C

# input Also check `Cc1n[nH]c(C)c1Cl`
# output 221 °C

# input Then `Cc1cc2ccccc2cc1C` ?
# output 268 °C

# input Let us now turn to `Cc1cccc(Br)c1C`
# output 214 °C

# input Try this molecule next: `CCCCCCC(=O)OC`
# output 174 °C

====

Value kind: melting point (°C)
Quick reminder: number only, in °C, skip the unit.

Worked set:
>>> reported_result("Oc1c(Cl)cc(Cl)c2ccccc12")
108
>>> reported_result("O=C(NC(=O)c1c(F)cccc1F)Nc1ccc(OC(F)(F)C(F)OC(F)(F)F)c(Cl)c1 (stereo not given)")
178
>>> reported_result("O=C(c1cc(O)c(O)c(O)c1)c1ccc(O)c(O)c1O")
270
>>> reported_result("Nc1cc2ccccc2c2ccccc12")
138
>>> reported_result("Cc1ccccc1[N+](=O)[O-]")
-10
>>> reported_result("CC(=O)Oc1ccccc1OC(C)=O")
64.5
>>> reported_result("Clc1cccc(-c2cccc(Cl)c2)c1")
29
>>> reported_result("COP(=S)(OC)Oc1ccc(S(=O)(=O)N(C)C)cc1")
53

# input Bench note: what melting point did `Nc1ccc(S(=O)(=O)Nc2ccccn2)cc1` show?
# output 192

# input And then `C=Cc1scnc1C` , what is it?
# output -15

====

Everything with melting point lower than 100 °C is N; everything else, including exactly 100 °C, is Y.

Previously resolved entries follow.
>>> label("Nc1c(Cl)cc(Cl)cc1Br")
"N"
>>> label("CNc1ccccc1C(=O)O")
"Y"
>>> label("CCCCCCO")
"N"
>>> label("C[Si](C)(C)C")
"N"
>>> label("IC(I)=C(I)I")
"Y"

# input Exam item: decide whether the reported melting point for `CCCCCCCO` is at least 100 °C.
# output N

# input Follow-up entry: `CC(=O)Br`
# output N

====

Use melting point to assign classes; range list: bin 1: < 50 °C; bin 2: ≥ 50 °C and < 100 °C; bin 3: ≥ 100 °C

As a guide, the following entries are already answered.
>>> label("C[C@@H]1[C@@H](c2ccc(Cl)cc2)SC(=O)N1C(=O)NC1CCCCC1 (single isomer, unassigned)")
"bin 3"
>>> label("Cc1ccc(/N=C/N(C)/C=N/c2ccc(C)cc2C)c(C)c1")
"bin 2"
>>> label("CNC(=S)NC")
"bin 2"
>>> label("N#CCCN(CCO)c1ccc(N=Nc2ccc([N+](=O)[O-])cc2Cl)cc1")
"bin 3"

# input Lab log: `CCOC(=O)Cc1[nH]nc2ccc(Cl)cc12` — assign melting point category
# output bin 2

# input Entry to check: CCCCCCCCCCCCCCCC(C)O (configuration not stated)
# output bin 2

# input Also `NC(=O)c1ccc(Br)cc1` , if possible.
# output bin 3

# input // repeat for `N#C[C@H](O[C@@H]1O[C@H](CO[C@@H]2O[C@H](CO)[C@@H](O)[C@H](O)[C@H]2O)[C@@H](O)[C@H](O)[C@H]1O)c1ccccc1` and report
# output bin 3

# input What would you report for `Nc1cc(Cl)cc(C(=O)O)c1Cl` ?
# output bin 3

# input Check `CS(=O)(=O)O` too.
# output bin 1

# input Then this compound: `O=C(CN1CCN(Cc2ccc3c(c2)OCO3)CC1)N1c2ccccc2Sc2ccccc21`
# output bin 3

# input What would you report for `CC(C)S[C@@H]1O[C@H](CO)[C@H](O)[C@H](O)[C@H]1O` ?
# output bin 3
